# ASSAY SYSTEM: T1, 14-3-3σ (UniProt P31947 1-248)
# T1 chain: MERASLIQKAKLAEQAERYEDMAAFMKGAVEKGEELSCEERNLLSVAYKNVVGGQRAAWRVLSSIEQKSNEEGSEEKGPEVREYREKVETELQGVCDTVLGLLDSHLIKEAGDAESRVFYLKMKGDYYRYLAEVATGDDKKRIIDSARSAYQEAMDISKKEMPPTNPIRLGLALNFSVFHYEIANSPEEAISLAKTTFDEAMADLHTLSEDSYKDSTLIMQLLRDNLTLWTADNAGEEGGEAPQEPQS
# PROTOCOL DETAILS: FP; 100 uM compound 86
No end group written: not given here.
MEASURED ENDPOINT: Kd (nM)

BINDER	MEASURED ENDPOINT	MEASURED RESULT
LQRIRSTSTPNVHMV (also: phosphoserine at S214, site in chain not given here) [15-mer A-RAF peptide]	Kd	140

I = SQRQRSTSTPNVHMV (also: phosphoserine at S259, site in chain not given here) [15-mer C-RAF peptide]
II = GQRDRSSSAPNVHIN (also: phosphoserine at S365, site in chain not given here) [15-mer B-RAF peptide]
Prompt line: Hi, I'm comparing I with II and wondering which one has the bigger number for Kd. Any idea? To answer, give the label that identifies your chosen option.
Response line: I
(I: 140 nM, II: 95 nM)
